Cited source: patent US10118947B2

Listed below: reduction in potency/affinity compared to wildtype values for each entry.
molecular target: human plasma Kallikrein (Homo sapiens, UniProt P03952); construct: purchased Stratech, UK; test: Functional enzyme inhibition assay with fluorogenic substrate Z-PheArg-AMC, human plasma Kallikrein; type: biochemical
Sequence (P03952 20-638): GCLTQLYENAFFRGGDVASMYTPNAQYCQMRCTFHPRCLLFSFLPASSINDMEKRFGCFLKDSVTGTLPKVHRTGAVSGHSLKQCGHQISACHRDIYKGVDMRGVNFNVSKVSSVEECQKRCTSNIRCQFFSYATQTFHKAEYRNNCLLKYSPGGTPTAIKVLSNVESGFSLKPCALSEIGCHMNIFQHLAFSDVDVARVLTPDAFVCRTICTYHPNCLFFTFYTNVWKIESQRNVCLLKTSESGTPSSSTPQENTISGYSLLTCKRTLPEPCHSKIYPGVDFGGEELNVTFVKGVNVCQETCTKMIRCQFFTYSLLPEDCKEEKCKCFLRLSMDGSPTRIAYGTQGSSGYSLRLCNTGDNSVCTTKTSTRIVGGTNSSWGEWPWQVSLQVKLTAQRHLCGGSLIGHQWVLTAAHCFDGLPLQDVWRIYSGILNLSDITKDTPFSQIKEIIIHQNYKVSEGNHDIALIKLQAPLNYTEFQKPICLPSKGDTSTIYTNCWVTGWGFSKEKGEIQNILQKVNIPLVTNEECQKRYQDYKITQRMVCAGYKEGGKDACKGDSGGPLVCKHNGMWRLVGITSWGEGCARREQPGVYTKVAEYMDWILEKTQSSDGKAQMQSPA
Numbered stars: 1 amine (or outer) side, 2 acyl side, 3 side chain; on linkers, the order of the positions; unused ones are H or OH. Bridge positions count the residues as written; N and C are the ends. Peptide text beside a SMILES is read from it. TBMB = c1c(C[*:1])cc(C[*:3])cc1C[*:2]
Express it in fold; write the number only.

These solved cases illustrate the format of a correct answer.
- Compound: "CC(=O)N[C@H]1CSCc2cc3cc(c2)CSC[C@H](NC(=O)[C@H](CCCNC(=N)N)NC(=O)[C@@H](C)NC(=O)[C@@H]2CCCN2C(=O)[C@H](Cc2c[nH]c4ccccc24)NC(=O)[C@H](CO)NC1=O)C(=O)N[C@@H](CC(C)C)C(=O)N[C@@H](Cc1c[nH]cn1)C(=O)N[C@@H](CCC(N)=O)C(=O)N[C@@H](CC(=O)O)C(=O)N[C@@H](CC(C)C)C(=O)N[C@H](C(N)=O)CSC3 [Ac-(06-34-18) D-Ala4]"
  Target Of Assay: "human plasma Kallikrein (Homo sapiens, UniProt P03952)"
  Numeric Result: 7000
- Compound: "CC(=O)N[C@H]1CSCc2cc3cc(c2)CSC[C@H](NC(=O)[C@H](CCCNC(=N)N)NC(=O)[C@H](C)NC(=O)[C@@H]2CCCN2C(=O)[C@H](Cc2ccccc2)NC(=O)[C@H](CO)NC1=O)C(=O)N[C@@H](CC(C)C)C(=O)N[C@@H](Cc1c[nH]cn1)C(=O)N[C@@H](CCC(N)=O)C(=O)N[C@@H](CC(=O)O)C(=O)N[C@@H](CC(C)C)C(=O)N[C@H](C(N)=O)CSC3 [Ac-(06-34-18) FPAR] (Ac-CSFPARCLHQDLC-NH2; linker 1-7-13 via TBMB)"
  Target Of Assay: "human plasma Kallikrein (Homo sapiens, UniProt P03952)"
  Numeric Result: 40

Dear colleague, please send me the reported reduction in potency/affinity compared to wildtype for CC(=O)N[C@H]1CSCc2cc3cc(c2)CSC[C@H](NC(=O)[C@H](CCCNC(=N)N)NC(=O)[C@H](C)NC(=O)[C@@H]2CCCN2C(=O)[C@@H](Cc2c[nH]c4ccccc24)NC(=O)[C@H](CO)NC1=O)C(=O)N[C@@H](CC(C)C)C(=O)N[C@@H](Cc1c[nH]cn1)C(=O)N[C@@H](CCC(N)=O)C(=O)N[C@@H](CC(=O)O)C(=O)N[C@@H](CC(C)C)C(=O)N[C@H](C(N)=O)CSC3 [Ac-(06-34-18) D-Trp2] when you can.
45000

Quick one: give measured reduction in potency/affinity compared to wildtype for CC(=O)N[C@H]1CSCc2cc3cc(c2)CSC[C@H](NC(=O)[C@H](Cc2ccc(NC(=N)N)cc2)NC(=O)[C@H](C)NC(=O)[C@@H]2CCCN2C(=O)[C@H](Cc2c[nH]c4ccccc24)NC(=O)[C@H](CO)NC1=O)C(=O)N[C@@H](CC(C)C)C(=O)N[C@@H](Cc1c[nH]cn1)C(=O)N[C@@H](CCC(N)=O)C(=O)N[C@@H](CC(=O)O)C(=O)N[C@@H](CC(C)C)C(=O)N[C@H](C(N)=O)CSC3 [Ac-(06-34-18) 4GuanPhe5]
2

For the compound CC(=O)N[C@H]1CSCc2cc3cc(c2)CSC[C@H](NC(=O)[C@@H](CCCNC(=N)N)NC(=O)[C@H](C)NC(=O)[C@@H]2CCCN2C(=O)[C@H](Cc2c[nH]c4ccccc24)NC(=O)[C@H](CO)NC1=O)C(=O)N[C@@H](CC(C)C)C(=O)N[C@@H](Cc1c[nH]cn1)C(=O)N[C@@H](CCC(N)=O)C(=O)N[C@@H](CC(=O)O)C(=O)N[C@@H](CC(C)C)C(=O)N[C@H](C(N)=O)CSC3 [Ac-(06-34-18) D-Arg5] , give its reported reduction in potency/affinity compared to wildtype.
300

====

biological target: human plasma Kallikrein (Homo sapiens, UniProt P03952); construct: purchased Stratech, UK; test: Functional enzyme inhibition assay with fluorogenic substrate Z-PheArg-AMC, human plasma Kallikrein; assay type: biochemical; settings: Table 24c, residue 8 modifications; read-out: Ki
Numbered stars: 1 amine (or outer) side, 2 acyl side, 3 side chain; on linkers, the order of the positions; unused ones are H or OH. Bridge positions count the residues as written; N and C are the ends. Square brackets hold non-standard residues; d marks the D form. Peptide text beside a SMILES is read from it. TBMB = c1c(C[*:1])cc(C[*:3])cc1C[*:2]; Dap = NC[C@H](N)C(=O)O
Here, each record is paired with measured Ki data.
State the answer as a number, implicitly in nM.

- Compound: "CC(=O)N[C@H]1CSCc2cc3cc(c2)CSC[C@H](NC(=O)[C@H](CCCNC(=N)N)NC(=O)[C@H](Cc2ccc(O)cc2)NC(=O)[C@@H]2CCCN2C(=O)[C@H](Cc2ccccc2)NC(=O)[C@H](CO)NC1=O)C(=O)N[C@@H](CC(C)C)C(=O)N[C@@H](Cc1c[nH]cn1)C(=O)N[C@@H](CCC(=O)O)C(=O)N[C@@H](CC(=O)O)C(=O)N[C@@H](CC(C)C)C(=O)N[C@H](C(N)=O)CSC3 [Ac-(06-34-18) Phe2 Tyr4 Glu8] (Ac-CSFPYRCLHEDLC-NH2; linker 1-7-13 via TBMB)"
  Display Unit: "nM"
  Ki: 2.53
- Compound: "CC(=O)N[C@H]1CSCc2cc3cc(c2)CSC[C@H](NC(=O)[C@H](CCCNC(=N)N)NC(=O)[C@H](Cc2ccc(O)cc2)NC(=O)[C@@H]2CCCN2C(=O)[C@H](Cc2ccccc2)NC(=O)[C@H](CO)NC1=O)C(=O)N[C@@H](CC(C)C)C(=O)N[C@@H](Cc1c[nH]cn1)C(=O)N[C@@H](CC(=O)O)C(=O)N[C@@H](CC(=O)O)C(=O)N[C@@H](CC(C)C)C(=O)N[C@H](C(N)=O)CSC3 [Ac-(06-34-18) Phe2 Tyr4 Asp8] (Ac-CSFPYRCLHDDLC-NH2; linker 1-7-13 via TBMB)"
  Display Unit: "nM"
  Ki: 3.83

Alright, here's another compound for you.
For CC(=O)N[C@H]1CSCc2cc3cc(c2)CSC[C@H](NC(=O)[C@H](CCCNC(=N)N)NC(=O)[C@H](Cc2ccc(O)cc2)NC(=O)[C@@H]2CCCN2C(=O)[C@H](Cc2ccccc2)NC(=O)[C@H](CO)NC1=O)C(=O)N[C@@H](CC(C)C)C(=O)N[C@@H](Cc1c[nH]cn1)C(=O)N[C@@H](CN)C(=O)N[C@@H](CC(=O)O)C(=O)N[C@@H](CC(C)C)C(=O)N[C@H](C(N)=O)CSC3 [Ac-(06-34-18) Phe2 Tyr4 Dap8] (Ac-CSFPYRCLH[Dap]DLC-NH2; linker 1-7-13 via TBMB) , write its Ki.
5.49

====

Target: human plasma Kallikrein (Homo sapiens)
Construct: purchased Stratech, UK
Test: Phage selections against human plasma Kallikrein (abundance in selection output)
Type: binding
Conditions: Table 17; relative abundance in the total selection outputs
Description: Glycerol stocks of phage libraries were diluted to OD600=0.1 in 500 ml 2YT/chloramphenicol (30 μg/ml) cultures and phage were produced at 30° C. over night (15-16 hrs). […] The WPAR (SEQ ID No. 19) motif identified from Example 1 was analysed in the context of the 06-34-03 peptide, in order to identify alternatives or improvements to the WPAR motif. […]
Recorded Endpoint: FREQUENCY
Lab note: write the figure by itself, no unit.

Completed entries (count: 2):
- Query Sequence: "CSWWARCTHQDLC"
  FREQUENCY: 1
- Query Sequence: "CSWQARCTHQDLC"
  FREQUENCY: 1

With those in mind, consider the next sequence.
Return FREQUENCY for the following sequence: CSFPYKCTHQDLC
1

====

Target: human plasma Kallikrein (Homo sapiens)
Construct: purchased Stratech, UK
Test: Phage selections against human plasma Kallikrein (abundance in selection output)
Assay type: binding
Settings: Table 17; relative abundance in the total selection outputs
Protocol: Glycerol stocks of phage libraries were diluted to OD600=0.1 in 500 ml 2YT/chloramphenicol (30 μg/ml) cultures and phage were produced at 30° C. over night (15-16 hrs). […] The WPAR (SEQ ID No. 19) motif identified from Example 1 was analysed in the context of the 06-34-03 peptide, in order to identify alternatives or improvements to the WPAR motif. […]
FREQUENCY values by entry
Answer with a number only.

Consider the worked cases shown below.
- Query Sequence: "CSFPIRCTHQDLC"
  FREQUENCY: 1
- Query Sequence: "CSFPFKCTHQDLC"
  FREQUENCY: 4
- Query Sequence: "CSMPYRCTHQDLC"
  FREQUENCY: 2

State measured FREQUENCY of the sequence CSYPYRCTHQDLC with human plasma Kallikrein (Homo sapiens).
2

Identify measured FREQUENCY obtained with human plasma Kallikrein (Homo sapiens) for CSLPFKCTHQDLC .
1

Quote human plasma Kallikrein (Homo sapiens) FREQUENCY for entry CSYPIRCTHQDLC .
2

Retrieve FREQUENCY on human plasma Kallikrein (Homo sapiens); query CSWAARCTHQDLC
1
